Measured On: Mu-type opioid receptor (Mus musculus) (UniProt P42866)
Sequence (P42866 whole entry): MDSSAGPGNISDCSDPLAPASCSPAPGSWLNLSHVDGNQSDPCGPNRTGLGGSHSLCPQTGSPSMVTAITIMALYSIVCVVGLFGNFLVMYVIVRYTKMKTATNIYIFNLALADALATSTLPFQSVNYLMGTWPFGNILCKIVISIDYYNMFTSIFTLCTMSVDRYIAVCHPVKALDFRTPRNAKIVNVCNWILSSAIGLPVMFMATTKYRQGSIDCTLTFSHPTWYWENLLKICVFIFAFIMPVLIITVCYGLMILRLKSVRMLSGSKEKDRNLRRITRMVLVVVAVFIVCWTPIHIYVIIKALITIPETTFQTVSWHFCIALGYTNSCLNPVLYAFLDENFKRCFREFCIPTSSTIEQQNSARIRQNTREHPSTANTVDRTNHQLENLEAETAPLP
Experiment Description: Antagonism of opioid analgesia using a mouse writhing model to block morphine ([…]) induced mu-opioid receptor (subcutaneously dosed)
Type: functional, organism-based
Readout Kind: AD50 (mg/kg)
Give the value in mg/kg but do not write mg/kg after it.

Below are worked cases with known answers.
Quote Mu-type opioid receptor (Mus musculus) (UniProt P42866) AD50 for entry C[C@H]1CN(CCc2cccs2)CC[C@@]1(C)c1cccc(O)c1 . 0.25

Quote Mu-type opioid receptor (Mus musculus) (UniProt P42866) AD50 for entry C[C@H]1CN(CC(O)c2ccccc2)CC[C@@]1(C)c1cccc(O)c1 (stereo partly specified) . 2.4

Quote Mu-type opioid receptor (Mus musculus) (UniProt P42866) AD50 for entry C[C@H]1CN(CC2CCCO2)CC[C@@]1(C)c1cccc(O)c1 (stereo partly specified) . 0.6

Here is another compound to look at.
Quote Mu-type opioid receptor (Mus musculus) (UniProt P42866) AD50 for entry C[C@H]1CN(Cc2ccccc2)CC[C@@]1(C)c1cccc(O)c1 . 0.29

Taken from ChEMBL document CHEMBL1126828.
